experiment-description: Selectivity index, ratio of IC50 for cytotoxicity against human HDF cells to IC50 for cytotoxicity against human PC-3 cells
Type: toxicity, cell-based
applied-conditions: HDF cells versus PC-3 cells, read-out: Ratio IC50
measurement-type: selectivity ratio
Form field (numeric): enter value without unit.

Problem: Bench note: what selectivity ratio did CO[C@H]1/C=C\C=C(/C)C(=O)NC2=CC(=O)C(NC3CCN(C(=O)OC(C)(C)C)CC3)=C(C[C@@H](C)C[C@H](OC)[C@H](O)[C@@H](C)/C=C(\C)[C@@H]1OC(N)=O)C2=O show?
Result: 13.4

Problem: Request the reported selectivity ratio associated with CO[C@H]1/C=C\C=C(/C)C(=O)NC2=CC(=O)C(NCC3COCCOCCOCCOCCO3)=C(C[C@@H](C)C[C@H](OC)[C@H](O)[C@@H](C)/C=C(\C)[C@@H]1OC(N)=O)C2=O (stereo not given in full)
Result: 2.26

---

experiment-description: Selectivity index, ratio of IC50 for cytotoxicity against human HDF cells to IC50 for cytotoxicity against human SK-BR-3 cells
Format: toxicity, cell-based
applied-conditions: HDF cells versus SK-BR-3 cells, read-out: Ratio IC50
measurement-type: selectivity ratio
Enter a number only.

CO[C@H]1/C=C\C=C(/C)C(=O)NC2=CC(=O)C(NCC3COCCOCCOCCOCCO3)=C(C[C@@H](C)C[C@H](OC)[C@H](O)[C@@H](C)/C=C(\C)[C@@H]1OC(N)=O)C2=O (stereo partly specified)	2.48

Problem: Tell me the measured selectivity ratio of CO[C@H]1/C=C\C=C(/C)C(=O)NC2=CC(=O)C(NC3CCC(O)CC3)=C(C[C@@H](C)C[C@H](OC)[C@H](O)[C@@H](C)/C=C(\C)[C@@H]1OC(N)=O)C2=O (stereo partly specified) , please.
Result: 2.14

Problem: Quick one: selectivity ratio of Nc1ccn([C@@H]2O[C@H](CO)[C@@H](O)[C@@H]2O)c(=O)n1 [CYTARABINE] ?
Result: 6.83

Problem: For the compound shown here, CO[C@@H](/C=C/C=C(/C)C(N)=O)[C@@H](OC(N)=O)/C(C)=C/[C@H](C)[C@@H](O)[C@H](C[C@H](C)CC1=C(NCCCN2CCCC2)C(=O)C=C(NCCCN2CCCC2)C1=O)OC , give the reported selectivity ratio.
Result: 2.49

Problem: Returns the measured selectivity ratio for the input compound. Input: COCCOCCOCCNC1=C2C[C@@H](C)C[C@H](OC)[C@H](O)[C@@H](C)/C=C(\C)[C@H](OC(N)=O)[C@@H](OC)/C=C\C=C(/C)C(=O)NC(=CC1=O)C2=O
Result: 2.98

Problem: What value of selectivity ratio has been recorded for this entry: CO[C@@H](C=CC=C(C)C(N)=O)[C@@H](OC(N)=O)/C(C)=C/[C@H](C)[C@@H](O)[C@H](C[C@H](C)CC1=C(NCCO)C(=O)C=C(NCCO)C1=O)OC
Result: 2.33

---

experiment-description: Selectivity index, ratio of IC50 for cytotoxicity against human HDF cells to IC50 for cytotoxicity against human SK-BR-3 cells
Format: toxicity, cell-based
applied-conditions: HDF cells versus SK-BR-3 cells, read-out: Ratio IC50
measurement-type: selectivity ratio
// response body must contain only the number

CO[C@H]1/C=C\C=C(/C)C(=O)NC2=CC(=O)C(NNC3=NCCN3)=C(C[C@@H](C)C[C@H](OC)[C@H](O)[C@@H](C)/C=C(\C)[C@@H]1OC(N)=O)C2=O	1.88
CO[C@H]1/C=C\C=C(/C)C(=O)NC2=CC(=O)C(NCc3ccccc3F)=C(C[C@@H](C)C[C@H](OC)[C@H](O)[C@@H](C)/C=C(\C)[C@@H]1OC(N)=O)C2=O	1.46
COC1=C2C[C@@H](C)C[C@H](OC)[C@H](O)[C@@H](C)/C=C(\C)[C@H](OC(N)=O)[C@@H](OC)/C=C\C=C(/C)C(=O)NC(=CC1=O)C2=O	2.45
CO[C@H]1/C=C\C=C(/C)C(=O)NC2=CC(=O)C(NCC3CCC(C(=O)O)CC3)=C(C[C@@H](C)C[C@H](OC)[C@H](O)[C@@H](C)/C=C(\C)[C@@H]1OC(N)=O)C2=O (some centres not stated)	2.82

Problem: Tell me the measured selectivity ratio of C=CCNC1=C2C[C@@H](C)C[C@H](OC)[C@H](O)[C@@H](C)/C=C(\C)[C@H](OC(N)=O)[C@@H](OC)/C=C\C=C(/C)C(=O)NC(=CC1=O)C2=O , please.
Result: 49

Problem: So what's the measured selectivity ratio for this one? CO[C@H]1/C=C\C=C(/C)C(=O)NC2=CC(=O)C(NCc3cccc(N4CCOC4=O)c3)=C(C[C@@H](C)C[C@H](OC)[C@H](O)[C@@H](C)/C=C(\C)[C@@H]1OC(N)=O)C2=O
Result: 3.13

Problem: Fill blank: measured selectivity ratio of the molecule CCOC(=O)C1CCC(CNC2=C3C[C@@H](C)C[C@H](OC)[C@H](O)[C@@H](C)/C=C(\C)[C@H](OC(N)=O)[C@@H](OC)/C=C\C=C(/C)C(=O)NC(=CC2=O)C3=O)CC1 (some centres not stated) is ____.
Result: 3.64

---

# logP at 1 h per entry
experiment-description: Octanol/water partition coefficient, logP of compound incubated for 1 hr by UV-visible spectrophotometry
Type: physicochemical
Just the number, please, no unit attached.

Observe how each entry below is paired with its result.
CCOC(=O)C1CCC(CNC2=C3C[C@@H](C)C[C@H](OC)[C@H](O)[C@@H](C)/C=C(\C)[C@H](OC(N)=O)[C@@H](OC)/C=C\C=C(/C)C(=O)NC(=CC2=O)C3=O)CC1 (some centres undefined)	2.9
COCCOCCOCCNC1=C2C[C@@H](C)C[C@H](OC)[C@H](O)[C@@H](C)/C=C(\C)[C@H](OC(N)=O)[C@@H](OC)/C=C\C=C(/C)C(=O)NC(=CC1=O)C2=O	2.02
CCOC(=O)N1CCC(NC2=C3C[C@@H](C)C[C@H](OC)[C@H](O)[C@@H](C)/C=C(\C)[C@H](OC(N)=O)[C@@H](OC)/C=C\C=C(/C)C(=O)NC(=CC2=O)C3=O)CC1	2.39

Below: the item to evaluate.
Problem: Recorded logP at 1 h for CO[C@H]1/C=C\C=C(/C)C(=O)NC2=CC(=O)C(NC3CCN(C(=O)OC(C)(C)C)CC3)=C(C[C@@H](C)C[C@H](OC)[C@H](O)[C@@H](C)/C=C(\C)[C@@H]1OC(N)=O)C2=O , please?
Result: 3.11

---

experiment-description: Selectivity index, ratio of IC50 for cytotoxicity against human HDF cells to IC50 for cytotoxicity against human A549 cells
Assay type: toxicity, cell-based
applied-conditions: HDF cells versus A549 cells, read-out: Ratio IC50
measurement-type: selectivity ratio
Answer field: number only, no words.

Example results:
CO[C@H]1/C=C\C=C(/C)C(=O)NC2=CC(=O)C(NCCCCO)=C(C[C@@H](C)C[C@H](OC)[C@H](O)[C@@H](C)/C=C(\C)[C@@H]1OC(N)=O)C2=O	2.15
CO[C@H]1/C=C\C=C(/C)C(=O)NC2=CC(=O)C(NCc3cccc(N4CCOC4=O)c3)=C(C[C@@H](C)C[C@H](OC)[C@H](O)[C@@H](C)/C=C(\C)[C@@H]1OC(N)=O)C2=O	3.02
CO[C@@H](C=CC=C(C)C(N)=O)[C@@H](OC(N)=O)/C(C)=C/[C@H](C)[C@@H](O)[C@H](C[C@H](C)CC1=C(NCCOCCO)C(=O)C=C(NCCOCCO)C1=O)OC	2.73

Problem: Which selectivity ratio is reported for this molecule? CO[C@H]1/C=C\C=C(/C)C(=O)NC2=CC(=O)C(NCC3COCCOCCOCCOCCOCCO3)=C(C[C@@H](C)C[C@H](OC)[C@H](O)[C@@H](C)/C=C(\C)[C@@H]1OC(N)=O)C2=O (stereo not given in full)
Result: 3.73

Problem: # lookup: selectivity ratio of COCCOCCOCCNC1=C2C[C@@H](C)C[C@H](OC)[C@H](O)[C@@H](C)/C=C(\C)[C@H](OC(N)=O)[C@@H](OC)/C=C\C=C(/C)C(=O)NC(=CC1=O)C2=O
Result: 3.04

---

experiment-description: Selectivity index, ratio of IC50 for cytotoxicity against human HDF cells to IC50 for cytotoxicity against human SK-BR-3 cells
Assay type: toxicity, cell-based
applied-conditions: HDF cells versus SK-BR-3 cells, read-out: Ratio IC50
selectivity ratio overview
The answer should be a number; do not append a unit.

CCOC(=O)N1CCC(NC2=C3C[C@@H](C)C[C@H](OC)[C@H](O)[C@@H](C)/C=C(\C)[C@H](OC(N)=O)[C@@H](OC)/C=C\C=C(/C)C(=O)NC(=CC2=O)C3=O)CC1	3.41
CO[C@H]1/C=C\C=C(/C)C(=O)NC2=CC(=O)C(NCC3COCCOCCOCCOCCOCCO3)=C(C[C@@H](C)C[C@H](OC)[C@H](O)[C@@H](C)/C=C(\C)[C@@H]1OC(N)=O)C2=O (stereo partly specified)	5.73
CO[C@@H](/C=C/C=C(/C)C(N)=O)[C@@H](OC(N)=O)/C(C)=C/[C@H](C)[C@@H](O)[C@H](C[C@H](C)CC1=C(NCCCCO)C(=O)C=C(NCCCCO)C1=O)OC	1.51
CO[C@H]1/C=C\C=C(/C)C(=O)NC2=CC(=O)C(NCCOCCO)=C(C[C@@H](C)C[C@H](OC)[C@H](O)[C@@H](C)/C=C(\C)[C@@H]1OC(N)=O)C2=O	2.43
COc1c(O)cc2cc1C[C@@H](C)C[C@H](OC)[C@H](O)[C@@H](C)/C=C(\C)[C@H](OC(N)=O)[C@@H](OC)CC/C=C(\C)C(=O)N2	53

Problem: Could you share which selectivity ratio value was measured for CCOC(=O)[C@@H](N)CCCCNC1=C2C[C@@H](C)C[C@H](OC)[C@H](O)[C@@H](C)/C=C(\C)[C@H](OC(N)=O)[C@@H](OC)/C=C\C=C(/C)C(=O)NC(=CC1=O)C2=O ?
Result: 2.33

Problem: Quick one: selectivity ratio of CO[C@H]1/C=C\C=C(/C)C(=O)NC2=CC(=O)C(NCc3ccc(CS(N)(=O)=O)cc3)=C(C[C@@H](C)C[C@H](OC)[C@H](O)[C@@H](C)/C=C(\C)[C@@H]1OC(N)=O)C2=O ?
Result: 2.41

Problem: # selectivity ratio lookup, item CO[C@H]1/C=C\C=C(/C)C(=O)NC2=CC(=O)C(NCCCCO)=C(C[C@@H](C)C[C@H](OC)[C@H](O)[C@@H](C)/C=C(\C)[C@@H]1OC(N)=O)C2=O
Result: 2.15

Problem: I am curious: what selectivity ratio value has been reported for CO[C@H]1/C=C\C=C(/C)C(=O)NC2=CC(=O)C(NCCO)=C(C[C@@H](C)C[C@H](OC)[C@H](O)[C@@H](C)/C=C(\C)[C@@H]1OC(N)=O)C2=O ?
Result: 3.51

Problem: What value of selectivity ratio has been reported for the following compound? CO[C@H]1/C=C\C=C(/C)C(=O)NC2=CC(=O)C(NCCCCCCO)=C(C[C@@H](C)C[C@H](OC)[C@H](O)[C@@H](C)/C=C(\C)[C@@H]1OC(N)=O)C2=O
Result: 2.89

Problem: State the recorded selectivity ratio for this entry: C#CCCN1CCC(NC2=C3C[C@@H](C)C[C@H](OC)[C@H](O)[C@@H](C)/C=C(\C)[C@H](OC(N)=O)[C@@H](OC)/C=C\C=C(/C)C(=O)NC(=CC2=O)C3=O)CC1
Result: 2.49
